- TARGET OF ASSAY: human thrombocytes
- METHOD SUMMARY: Fibrinogen binding to human thrombocytes
- TEST SETTINGS: gel-filtered platelets, 125-J-fibrinogen, 20 minutes at ambient temperature; read-out: Fibrinogen binding test IC50
Where a name gives a salt, the structure may show the parent alone.
MEASURE NAME: pIC50
Lab note — pIC50 values are minus log10 of concentrations in M.

Previously resolved entries follow.
INSERT INTO assay_data (compound, target_of_assay, measure_name, value_observed) VALUES
  ('N=C(N)c1cccc(C(=O)c2ccc(OC[C@@H]3C[C@@H](CC(=O)O)C(=O)N3CCCc3ccccc3)cc2)c1', 'human thrombocytes', 'pIC50', 6.16),
  ('NCCCCc1ccc(OC[C@@H]2C[C@@H](CC(=O)O)C(=O)N2CCCc2ccccc2)cc1 [23(8), HCl]', 'human thrombocytes', 'pIC50', 5.34);

Sample CC(=O)N1C[C@H](CC(=O)O)C[C@H]1COc1ccc(-c2ccc(C(=N)N)cc2)cc1 — what was its pIC50?
7.70

Sample CC(=O)N(C[C@@H]1C[C@@H](CC(=O)O)C(=O)N1CCCc1ccccc1)c1ccc(-c2ccc(C(=N)N)cc2)cc1 — what was its pIC50?
6.77

Sample Cc1c(OC[C@@H]2C[C@@H](CC(=O)O)C(=O)N2CCCc2ccccc2)ccc(-c2ccc(C(=N)N)cc2)c1C — what was its pIC50?
7.30
